Molecular target: USP16 (UniProt Q9Y5T5)
Sequence (Q9Y5T5 whole entry, looked up, the tested form may be a part): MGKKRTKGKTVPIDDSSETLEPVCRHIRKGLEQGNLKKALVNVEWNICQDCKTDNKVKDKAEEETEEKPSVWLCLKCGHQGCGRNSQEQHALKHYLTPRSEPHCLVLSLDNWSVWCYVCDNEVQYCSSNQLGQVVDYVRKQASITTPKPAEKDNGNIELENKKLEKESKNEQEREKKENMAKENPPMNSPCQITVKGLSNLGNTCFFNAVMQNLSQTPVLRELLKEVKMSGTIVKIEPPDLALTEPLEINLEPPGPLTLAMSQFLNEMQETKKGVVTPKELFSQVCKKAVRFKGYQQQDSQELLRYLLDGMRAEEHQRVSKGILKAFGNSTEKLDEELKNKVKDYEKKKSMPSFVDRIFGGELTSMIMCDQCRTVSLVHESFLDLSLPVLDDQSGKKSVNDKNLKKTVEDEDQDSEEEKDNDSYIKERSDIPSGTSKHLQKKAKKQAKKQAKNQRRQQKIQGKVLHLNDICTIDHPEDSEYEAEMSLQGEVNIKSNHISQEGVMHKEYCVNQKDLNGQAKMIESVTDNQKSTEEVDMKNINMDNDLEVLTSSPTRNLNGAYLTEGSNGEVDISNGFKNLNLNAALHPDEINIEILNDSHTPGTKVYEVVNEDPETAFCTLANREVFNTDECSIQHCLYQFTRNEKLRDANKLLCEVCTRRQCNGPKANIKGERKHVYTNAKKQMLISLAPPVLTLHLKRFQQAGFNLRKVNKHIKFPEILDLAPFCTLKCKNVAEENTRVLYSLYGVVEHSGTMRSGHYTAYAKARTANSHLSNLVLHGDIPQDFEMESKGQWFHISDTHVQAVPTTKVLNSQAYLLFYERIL
Assay: log2 ratio of Biotin-Ahx-Ub-VS probe labelling (fragment/DMSO); higher = less target engagement (more negative = stronger competition), active = hit call of the paper (q ≤ 0.05, log2 ratio ≤ -1)
Settings: compound concentration: 200 uM; treatment time: 3 h
Mark 1 for reported log2 ratio of Biotin-Ahx-Ub-VS probe labelling of -0.1 or greater; mark -1 for anything smaller.

[[record]]
compound = "Cl.O=C(CCl)NCCN1CCc2ccccc21"
classassignment = -1

[[record]]
compound = "Cl.Cn1ncc2c1CC(NC(=O)CCl)CC2 (configuration not stated)"
classassignment = -1

[[record]]
compound = "Cc1cccc2nc(CCNC(=O)CCl)cn12.Cl"
classassignment = 1

[[record]]
compound = "O=C(CCl)NCc1cccc(N2CCCC2=O)c1"
classassignment = -1

[[record]]
compound = "O=C(CCl)N1CCC(C(=O)N2CCCC2)CC1"
classassignment = -1

[[record]]
compound = "Cl.O=C(CCl)NCc1cc2c(nc1O)CCCC2"
classassignment = -1

[[record]]
compound = "O=C(CCl)N1CCC(c2ccn[nH]2)C1 (configuration not stated)"
classassignment = -1

[[record]]
compound = "Cl.O=C(CCl)N1CCN(Cc2ccccc2)CC1"
classassignment = -1

[[record]]
compound = "N#Cc1ccc(Cl)cc1NC(=O)CCl"
classassignment = -1

[[record]]
compound = "Cc1nnc(C(NC(=O)CCl)c2ccccc2)n1C (configuration not stated)"
classassignment = -1

[[record]]
compound = "Cl.O=C(CCl)N1CCn2ncc(O)c2C1"
classassignment = 1

[[record]]
compound = "O=C(CCl)NCc1cccc(F)c1"
classassignment = -1

[[record]]
compound = "O=C(CCl)Nc1cc(Cl)ccc1C(=O)O"
classassignment = -1

[[record]]
compound = "O=C(CCl)Nc1nc(-c2cccs2)cs1"
classassignment = 1

[[record]]
compound = "C#Cc1cccc(NC(=O)CCl)c1"
classassignment = -1

[[record]]
compound = "CS(=O)(=O)c1ccc(NC(=O)CCl)cc1"
classassignment = -1

[[record]]
compound = "CCc1c[nH]c(CNC(=O)CCl)n1.Cl"
classassignment = 1

[[record]]
compound = "CCN(C(=O)CCl)C1CCCCC1"
classassignment = 1

[[record]]
compound = "CN(C)S(=O)(=O)c1ccccc1CNC(=O)CCl"
classassignment = 1

[[record]]
compound = "O=C(CCl)N1CC2(CCOCC2)C1"
classassignment = -1

[[record]]
compound = "Cc1ncsc1CCNC(=O)CCl"
classassignment = 1

[[record]]
compound = "Cc1ccn2cc(CNC(=O)CCl)nc2c1.Cl"
classassignment = 1


* * *

Molecular target: FAM105A (UniProt Q9NUU6)
Sequence (Q9NUU6 whole entry, the tested form may be a part): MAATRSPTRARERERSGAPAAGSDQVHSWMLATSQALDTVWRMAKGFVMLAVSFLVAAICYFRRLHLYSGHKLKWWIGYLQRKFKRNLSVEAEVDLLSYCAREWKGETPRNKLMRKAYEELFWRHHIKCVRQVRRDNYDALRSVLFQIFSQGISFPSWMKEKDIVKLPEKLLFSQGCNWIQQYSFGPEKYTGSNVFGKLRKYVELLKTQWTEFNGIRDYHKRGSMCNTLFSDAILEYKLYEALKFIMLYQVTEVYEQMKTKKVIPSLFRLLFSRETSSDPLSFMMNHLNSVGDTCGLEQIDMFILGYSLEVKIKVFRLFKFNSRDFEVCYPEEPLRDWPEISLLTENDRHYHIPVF
Experiment: log2 ratio of Biotin-Ahx-Ub-VS probe labelling (fragment/DMSO); higher = less target engagement (more negative = stronger competition), active = hit call of the paper (q ≤ 0.05, log2 ratio ≤ -1)
Conditions: compound concentration: 200 uM; treatment time: 3 h
valueType: log2 ratio of Biotin-Ahx-Ub-VS probe labelling

[[record]]
smilesinput = "O=C(CCl)NCCc1ccc2c(c1)OCCO2"
result = "0.307 (inactive)"

[[record]]
smilesinput = "C#Cc1cccc(NC(=O)CCl)c1"
result = "0.233 (inactive)"

[[record]]
smilesinput = "O=C(CCl)Nc1ccc(F)cc1Cl"
result = "0.0383 (inactive)"


* * *

Target: USP16 (UniProt Q9Y5T5)
Test: log2 ratio of Biotin-Ahx-Ub-VS probe labelling (fragment/DMSO); higher = less target engagement (more negative = stronger competition), active = hit call of the paper (q ≤ 0.05, log2 ratio ≤ -1)
Settings: compound concentration: 200 uM; treatment time: 3 h
Heads up, the class ranges for log2 ratio of Biotin-Ahx-Ub-VS probe labelling are band A (below -0.3), band B (-0.3 to below 0.01), band C (0.01 or more)

[[record]]
compound = "O=C(CCl)NCC1(c2ccccc2)CC1"
classassignment = "band C"

[[record]]
compound = "O=C(CCl)N1CCCC1c1ccsc1 (stereo not given)"
classassignment = "band B"

[[record]]
compound = "CN(C(=O)CCl)c1nc2ccccc2s1"
classassignment = "band C"

[[record]]
compound = "CCN1C(=O)C2CN(C(=O)CCl)CCN2C1=O (stereo not given)"
classassignment = "band A"

[[record]]
compound = "O=C(CCl)N1CCC(S(=O)(=O)c2ccc(F)cc2)CC1"
classassignment = "band C"

[[record]]
compound = "O=C(CCl)NC1CCCCNC1=O (stereo not given)"
classassignment = "band A"

[[record]]
compound = "O=C(CCl)N1CCCCC12CCOCC2"
classassignment = "band A"

[[record]]
compound = "O=C(CCl)N1CCOC(c2cccc(F)c2)C1 (stereo not given)"
classassignment = "band C"

[[record]]
compound = "O=C(CCl)N1CCC(=C(F)CO)C1"
classassignment = "band A"

[[record]]
compound = "Cc1ccc(-c2nnc(C)[nH]2)c(NC(=O)CCl)c1"
classassignment = "band C"

[[record]]
compound = "CC(=O)C1CCCCN1C(=O)CCl (stereo not given)"
classassignment = "band B"

[[record]]
compound = "O=C(CCl)NCc1ccc(N2CCOCC2)nc1"
classassignment = "band A"

[[record]]
compound = "O=C(CCl)NCCc1cccc2ccccc12"
classassignment = "band A"

[[record]]
compound = "O=C(CCl)Nc1ccc(F)cc1Cl"
classassignment = "band B"

[[record]]
compound = "CN(CCc1ncc(Br)cn1)C(=O)CCl.Cl"
classassignment = "band A"

[[record]]
compound = "O=C(CCl)Nc1cccc2ncccc12"
classassignment = "band C"

[[record]]
compound = "O=C(CCl)N(Cc1ccsc1)C1CC1"
classassignment = "band C"

[[record]]
compound = "Cc1noc(N2CCN(C(=O)CCl)CC2)n1.Cl"
classassignment = "band C"

[[record]]
compound = "Cl.O=C(CCl)NCCc1ncc(F)cc1F"
classassignment = "band B"

[[record]]
compound = "COc1ccc(C2CCCN2C(=O)CCl)c(OC)c1 (stereo not given)"
classassignment = "band B"

[[record]]
compound = "CC(NC(=O)CCl)c1ccc2[nH]ncc2c1 (stereo not given)"
classassignment = "band A"

[[record]]
compound = "CN(C)C(=O)c1ccc(NC(=O)CCl)cc1"
classassignment = "band A"

[[record]]
compound = "Cc1cccc(NC(=O)[C@@H]2CCCN2C(=O)CCl)n1"
classassignment = "band B"

[[record]]
compound = "O=C(CCl)NCCc1ccc2c(c1)OCCO2"
classassignment = "band C"

[[record]]
compound = "O=C(CCl)NCCC1COCCO1 (stereo not given)"
classassignment = "band A"

[[record]]
compound = "CNC(=O)Cn1cc(NC(=O)CCl)cn1"
classassignment = "band B"

[[record]]
compound = "O=C(CCl)N1CCN(C(=O)N2CCCCC2)CC1"
classassignment = "band C"

[[record]]
compound = "Cc1cccn2cc(CCNC(=O)CCl)nc12.Cl"
classassignment = "band A"

[[record]]
compound = "Cc1cccc(NC(=O)CCl)c1C"
classassignment = "band A"

[[record]]
compound = "CCC(NC(=O)CCl)c1ccc(Cl)cc1 (stereo not given)"
classassignment = "band B"

[[record]]
compound = "O=C(CCl)N1CCC(C(O)c2ccc(F)cc2)CC1 (stereo not given)"
classassignment = "band C"

[[record]]
compound = "CCN(C(=O)CCl)C1CCS(=O)(=O)C1 (stereo not given)"
classassignment = "band A"

[[record]]
compound = "O=C(CCl)NC1CCOc2ccccc21 (stereo not given)"
classassignment = "band A"

[[record]]
compound = "Cc1cnc2[nH]cc(CCNC(=O)CCl)c2c1"
classassignment = "band C"


* * *

Biological target: UCHL5 (UniProt Q9Y5K5)
Sequence (whole entry): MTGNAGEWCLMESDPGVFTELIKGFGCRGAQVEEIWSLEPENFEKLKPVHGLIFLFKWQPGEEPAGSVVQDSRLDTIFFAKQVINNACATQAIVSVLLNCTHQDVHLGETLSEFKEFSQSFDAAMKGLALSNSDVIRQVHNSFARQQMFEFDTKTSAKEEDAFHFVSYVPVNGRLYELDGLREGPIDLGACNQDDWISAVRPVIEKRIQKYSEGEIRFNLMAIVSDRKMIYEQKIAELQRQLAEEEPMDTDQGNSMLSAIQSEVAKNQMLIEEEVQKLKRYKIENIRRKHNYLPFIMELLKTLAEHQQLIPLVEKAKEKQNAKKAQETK
Experiment: log2 ratio of Biotin-Ahx-Ub-VS probe labelling (fragment/DMSO); higher = less target engagement (more negative = stronger competition), active = hit call of the paper (q ≤ 0.05, log2 ratio ≤ -1)
Details: compound concentration: 200 uM; treatment time: 3 h
Output: class label from log2 ratio of Biotin-Ahx-Ub-VS probe labelling. Mapping: bottom = under -0.3, middle = from -0.3 up to -0.1, top = -0.1 and over

[[record]]
compound = "O=C(CCl)Nc1cccc(C(=O)N2CCSCC2)c1"
systemundertest = "UCHL5 (UniProt Q9Y5K5)"
classassignment = "middle"

[[record]]
compound = "CC1Cc2ccccc2N1C(=O)CCl (stereo unspecified)"
systemundertest = "UCHL5 (UniProt Q9Y5K5)"
classassignment = "bottom"

[[record]]
compound = "Cc1c(NC(=O)CCl)c(=O)n(-c2ccccc2)n1C"
systemundertest = "UCHL5 (UniProt Q9Y5K5)"
classassignment = "middle"

[[record]]
compound = "CNC(=O)C1CCN(C(=O)CCl)CC1"
systemundertest = "UCHL5 (UniProt Q9Y5K5)"
classassignment = "top"

[[record]]
compound = "Cl.O=C(CCl)N1CCn2ncc(O)c2C1"
systemundertest = "UCHL5 (UniProt Q9Y5K5)"
classassignment = "bottom"

[[record]]
compound = "O=C(CCl)N1CCOC2(CCC2)C1"
systemundertest = "UCHL5 (UniProt Q9Y5K5)"
classassignment = "top"

[[record]]
compound = "Cl.O=C(CCl)N[C@H]1C[C@@H](n2cccn2)C1"
systemundertest = "UCHL5 (UniProt Q9Y5K5)"
classassignment = "middle"

[[record]]
compound = "CS(=O)(=O)c1ccc(NC(=O)CCl)cc1"
systemundertest = "UCHL5 (UniProt Q9Y5K5)"
classassignment = "middle"

[[record]]
compound = "O=C(CCl)NC1(c2ccc3c(c2)OCCO3)CCCC1"
systemundertest = "UCHL5 (UniProt Q9Y5K5)"
classassignment = "bottom"

[[record]]
compound = "O=C(CCl)N1CC=C(c2c[nH]c3ccccc23)CC1"
systemundertest = "UCHL5 (UniProt Q9Y5K5)"
classassignment = "bottom"

[[record]]
compound = "C#Cc1cccc(NC(=O)CCl)c1"
systemundertest = "UCHL5 (UniProt Q9Y5K5)"
classassignment = "bottom"

[[record]]
compound = "Cc1ccccc1CN(C)C(=O)CCl"
systemundertest = "UCHL5 (UniProt Q9Y5K5)"
classassignment = "bottom"

[[record]]
compound = "Cl.O=C(CCl)N1CC(c2ccc(Br)cn2)C1"
systemundertest = "UCHL5 (UniProt Q9Y5K5)"
classassignment = "middle"

[[record]]
compound = "Cc1ccccc1OCC(=O)N1CCN(C(=O)CCl)CC1"
systemundertest = "UCHL5 (UniProt Q9Y5K5)"
classassignment = "middle"

[[record]]
compound = "CC(=O)Nc1ccc(NC(=O)CCl)cc1"
systemundertest = "UCHL5 (UniProt Q9Y5K5)"
classassignment = "middle"

[[record]]
compound = "Cc1nc(CN2CCCN(C(=O)CCl)CC2)no1.Cl"
systemundertest = "UCHL5 (UniProt Q9Y5K5)"
classassignment = "top"

